Data credit: patent US12257247B2

Molecular target: VAV1 (Homo sapiens, UniProt P15498+Q96SW2)
Construct: A heterozygous VAV1 C-terminal HiBiT knock-in pool was generated at Monte Rosa Therapeutics from a clonal Jurkat cell; endogenous in cells; host or cells: Jurkat clone stably expressing LgBiT, homozygous GSPT1-G575N; heterozygous VAV1-HiBiT knock-in pool
Test: VAV1 degradation activity, VAV1-HiBiT knock-in Jurkat luminescence assay (Example A, Table 1)
Assay type: cell-based
Settings: VAV1-HiBiT knock-in Jurkat cells, luminescence read at 6 and 24 hours; read-out: VAV1 DC50
Protocol: Cells were plated at 10,000 cells per well using Multiflo (BioTek) or Multi Drop Combi (Thermo Fisher) in 384-well white solid bottom plates (Corning, 3570BC) in 25 ul volume in RPMI 1640 media (Thermo Fischer, 22400105) containing 10% FBS (Corning, 35-075-CV), 1% Penicillin/Streptomycin (ThermoFisher Scientific, 15140-122), and 1% Endurazine (Nano-Glo Endurazine Live Cell Substrate (Promega, N2571)). Cells were incubated for ˜16 hours at 37° C., 5% CO2. […]
Quantity measured: DC50 (nM)
Numbers only here, please. The scale is nM.

compound CN1CC2(CCC2)N(c2ccc(-c3cccc(C4CCC(=O)NC4=O)c3Cl)cc2)C1=O (stereo not shown) , DC50 observed: 2.46

compound CN1CCC2(CC2)N(c2ccc(-c3cccc(C4CCC(=O)NC4=O)c3Cl)cc2)C1=O (stereo not shown) , DC50 observed: 1.87

compound O=C1CCC(c2cccc(-c3cnc(N4C(=O)CCC45CC5)c(F)c3)c2Cl)C(=O)N1 (stereo not shown) , DC50 observed: 234

compound O=C1CCC(c2cccc(-c3ccc(CN4C(=O)CCC45CCC5)cc3)c2Cl)C(=O)N1 (stereo not shown) , DC50 observed: 6.99

compound O=C1CCC(c2cc(F)cc(-c3ccc(-n4ccccc4=O)cc3)c2Cl)C(=O)N1 (stereo not shown) , DC50 observed: 76.4

compound N#Cc1ccc(-c2cccc(C3CCC(=O)NC3=O)c2Cl)cc1 (stereo not shown) , DC50 observed: 705

* * *

For each entry below, report its Dmax value.
biological target: VAV1 (Homo sapiens, UniProt P15498+Q96SW2); construct: A heterozygous VAV1 C-terminal HiBiT knock-in pool was generated at Monte Rosa Therapeutics from a clonal Jurkat cell; endogenous in cells; host or cells: Jurkat clone stably expressing LgBiT, homozygous GSPT1-G575N; heterozygous VAV1-HiBiT knock-in pool; assay: VAV1 degradation activity, VAV1-HiBiT knock-in Jurkat luminescence assay (Example A, Table 1); assay type: cell-based; conditions: Jurkat, VAV1-HiBiT knock-in Jurkat cells, luminescence read at 6 and 24 hours; read-out: VAV1 Dmax %, class

molecule CN(C)CCOc1ccc(-c2cccc(C3CCC(=O)NC3=O)c2Cl)cc1 (stereo not shown) , Dmax observed: < 60%

molecule Nc1ccc(-c2cccc(C3CCC(=O)NC3=O)c2Cl)cc1Cl (stereo not shown) , Dmax observed: > 90%

molecule O=C1CCC(c2cccc(-c3cnc(N4C(=O)CCCC45CC5)c(F)c3)c2Cl)C(=O)N1 (stereo not shown) , Dmax observed: 60 to 90%

molecule O=C1CCC(c2cccc(-c3ccc(N4CCC4=O)cc3)c2Cl)C(=O)N1 (stereo not shown) , Dmax observed: < 60%

molecule CC(Oc1ccc(-c2cccc(C3CCC(=O)NC3=O)c2Cl)cc1)c1ccn(C)n1 (stereo not shown) , Dmax observed: 60 to 90%

molecule O=C1CCC(c2cccc(-c3ccc(Cn4ccc(F)cc4=O)cc3)c2Cl)C(=O)N1 (stereo not shown) , Dmax observed: > 90%

molecule C[C@@H]1COC(=O)N1c1ccc(-c2cccc(C3CCC(=O)NC3=O)c2Cl)cc1 (stereo partly shown) , Dmax observed: 60 to 90%

molecule CN1Cc2cccc(-c3ccc(-c4cccc(C5CCC(=O)NC5=O)c4Cl)cc3)c2S1(=O)=O (stereo not shown) , Dmax observed: 60 to 90%

molecule O=C1CCC(c2cccc(-c3ccc(C(=O)Nc4ccno4)cc3)c2Cl)C(=O)N1 (stereo not shown) , Dmax observed: < 60%

molecule O=C1CCC(c2cccc(-c3ccc(N4C(=O)CCCC45CC5)cc3)c2Cl)C(=O)N1 (stereo not shown) , Dmax observed: > 90%

molecule Cc1cnc(Cc2ccc(-c3cccc(C4CCC(=O)NC4=O)c3Cl)cc2)nc1 (stereo not shown) , Dmax observed: > 90%

molecule O=C1CCC(c2cccc(-c3ccc(N4C(=O)CC45CCC5)cc3)c2Cl)C(=O)N1 (stereo not shown) , Dmax observed: 60 to 90%

molecule O=C1CCC(c2cccc(-c3ccc(Cc4cncnc4)cc3)c2Cl)C(=O)N1 (stereo not shown) , Dmax observed: > 90%

molecule O=C1CN(CCOc2ccc(-c3cccc(C4CCC(=O)NC4=O)c3Cl)cc2)CCN1 (stereo not shown) , Dmax observed: > 90%

molecule O=C1CCC(c2cccc(-c3ccc(OCC4CCOC4)cc3)c2Cl)C(=O)N1 (stereo not shown) , Dmax observed: 60 to 90%

molecule CC1CCC(=O)N(c2ccc(-c3cccc(C4CCC(=O)NC4=O)c3Cl)cc2)C1 (stereo not shown) , Dmax observed: > 90%

molecule O=C1CCC(c2cccc(-c3ccc(CN4CCN5CCCC5C4=O)cc3)c2Cl)C(=O)N1 (stereo not shown) , Dmax observed: 60 to 90%

molecule CN1CCCN(Cc2ncc(-c3cccc(C4CCC(=O)NC4=O)c3Cl)cc2F)C1=O (stereo not shown) , Dmax observed: 60 to 90%

molecule Cn1cc(CNc2ccc(-c3cccc(C4CCC(=O)NC4=O)c3Cl)cc2)cn1 (stereo not shown) , Dmax observed: > 90%

molecule O=C1CCC(c2cccc(-c3ccc(CN4CCn5ccnc5C4=O)cc3)c2Cl)C(=O)N1 (stereo not shown) , Dmax observed: 60 to 90%

molecule CC1CCCC(=O)N1c1ccc(-c2cccc(C3CCC(=O)NC3=O)c2Cl)cc1 (stereo not shown) , Dmax observed: > 90%

molecule O=C1CC[C@H](c2cccc(-c3ccc(-n4ccccc4=O)cc3)c2Cl)C(=O)N1 , Dmax observed: > 90%

molecule O=C1CCC(c2cccc(-c3ccc(N4C(=O)CCC45COC5)cc3)c2Cl)C(=O)N1 (stereo not shown) , Dmax observed: > 90%

molecule O=C1CCC(c2cccc(-c3ccc(CN4CC5CCCC5C4=O)cc3)c2Cl)C(=O)N1 (stereo not shown) , Dmax observed: > 90%

molecule Cc1cc(-c2cccc(C3CCC(=O)NC3=O)c2Cl)ccc1-n1ccccc1=O (stereo not shown) , Dmax observed: 60 to 90%

* * *

Target: VAV1 (Homo sapiens, UniProt P15498+Q96SW2)
Construct: A heterozygous VAV1 C-terminal HiBiT knock-in pool was generated at Monte Rosa Therapeutics from a clonal Jurkat cell; endogenous in cells; host or cells: Jurkat clone stably expressing LgBiT, homozygous GSPT1-G575N; heterozygous VAV1-HiBiT knock-in pool
Assay: VAV1 degradation activity, VAV1-HiBiT knock-in Jurkat luminescence assay (Example A, Table 1)
Type: cell-based
Settings: VAV1-HiBiT knock-in Jurkat cells, luminescence read at 6 and 24 hours; read-out: VAV1 DC50
Protocol: Cells were plated at 10,000 cells per well using Multiflo (BioTek) or Multi Drop Combi (Thermo Fisher) in 384-well white solid bottom plates (Corning, 3570BC) in 25 ul volume in RPMI 1640 media (Thermo Fischer, 22400105) containing 10% FBS (Corning, 35-075-CV), 1% Penicillin/Streptomycin (ThermoFisher Scientific, 15140-122), and 1% Endurazine (Nano-Glo Endurazine Live Cell Substrate (Promega, N2571)). Cells were incubated for ˜16 hours at 37° C., 5% CO2. […]
For each entry below, report its DC50 value.
Numbers only here, please. The scale is nM.

molecule O=C1CCC(c2cccc(-c3ccc(N4CCCCC4=O)nc3)c2Cl)C(=O)N1 (stereo not shown) [Compound 450] , DC50 observed: 173

molecule N#Cc1cc(-c2cccc(C3CCC(=O)NC3=O)c2Cl)ccc1O (stereo not shown) [Compound 112] , DC50 observed: 119

molecule O=C1CCC(c2cccc(-c3ccc(Cc4cccnc4)cc3)c2Cl)C(=O)N1 (stereo not shown) [Compound 374] , DC50 observed: 10.2

molecule CC1(C)CCCC(=O)N1c1ccc(-c2cccc(C3CCC(=O)NC3=O)c2Cl)cc1 (stereo not shown) [Compound 403] , DC50 observed: 3.26

* * *

biological target: VAV1 (Homo sapiens, UniProt P15498+Q96SW2); construct: A heterozygous VAV1 C-terminal HiBiT knock-in pool was generated at Monte Rosa Therapeutics from a clonal Jurkat cell; endogenous in cells; host or cells: Jurkat clone stably expressing LgBiT, homozygous GSPT1-G575N; heterozygous VAV1-HiBiT knock-in pool; experiment: VAV1 degradation activity, VAV1-HiBiT knock-in Jurkat luminescence assay (Example A, Table 1); assay type: cell-based; conditions: Jurkat, VAV1-HiBiT knock-in Jurkat cells, luminescence read at 6 and 24 hours; read-out: VAV1 Dmax %
For each entry below, report its Dmax value.
Please append the unit to your numeric answer.

compound CC1(C)CCN(Cc2ccc(-c3cccc(C4CCC(=O)NC4=O)c3Cl)cc2)C(=O)C1 (stereo not drawn) [Compound 285] , Dmax observed: 95.2%

compound Nc1cc(-c2cccc(C3CCC(=O)NC3=O)c2Cl)ccc1Cl (stereo not drawn) [Compound 138] , Dmax observed: 84.6%

compound O=C1CCC(c2cccc(-c3ccc(C(=O)Nc4ccno4)cc3)c2Cl)C(=O)N1 (stereo not drawn) [Compound 224] , Dmax observed: 51.5%

compound Cc1cc(OCc2ccn(C)n2)ccc1-c1ccc(Cl)c(C2CCC(=O)NC2=O)c1 (stereo not drawn) [Compound 152] , Dmax observed: 8.11%

compound O=C1CCC(c2cccc(-c3ccc(N4C(=O)OCCC45CC5)nc3)c2Cl)C(=O)N1 (stereo not drawn) [Compound 351] , Dmax observed: 87%

compound CN1CCN(Cc2ccc(-c3cccc(C4CCC(=O)NC4=O)c3Cl)cc2)C1=O (stereo not drawn) [Compound 388] , Dmax observed: 91%

compound CN1CCC[C@H](c2ccc(-c3cccc(C4CCC(=O)NC4=O)c3Cl)cc2)C1=O (stereo partly drawn) [Compound 409] , Dmax observed: 95.2%

compound O=C1CCC(c2cccc(-c3ccc(N4C(=O)OCC45CCC5)nc3)c2Cl)C(=O)N1 (stereo not drawn) [Compound 357] , Dmax observed: 90.8%

compound O=C1CCC(c2cccc(-c3ccc(-n4c(F)cccc4=O)nc3)c2Cl)C(=O)N1 (stereo not drawn) [Compound 343] , Dmax observed: 86.3%
